- study-target: PCSK9/LDLR (Homo sapiens, UniProt Q8NBP7)
- Sequence (Q8NBP7 31-152 limits assumed): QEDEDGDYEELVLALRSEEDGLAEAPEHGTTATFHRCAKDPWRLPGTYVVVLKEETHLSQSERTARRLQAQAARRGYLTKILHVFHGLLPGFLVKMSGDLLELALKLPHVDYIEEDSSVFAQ
- Sequence (Q8NBP7 153-692 limits assumed): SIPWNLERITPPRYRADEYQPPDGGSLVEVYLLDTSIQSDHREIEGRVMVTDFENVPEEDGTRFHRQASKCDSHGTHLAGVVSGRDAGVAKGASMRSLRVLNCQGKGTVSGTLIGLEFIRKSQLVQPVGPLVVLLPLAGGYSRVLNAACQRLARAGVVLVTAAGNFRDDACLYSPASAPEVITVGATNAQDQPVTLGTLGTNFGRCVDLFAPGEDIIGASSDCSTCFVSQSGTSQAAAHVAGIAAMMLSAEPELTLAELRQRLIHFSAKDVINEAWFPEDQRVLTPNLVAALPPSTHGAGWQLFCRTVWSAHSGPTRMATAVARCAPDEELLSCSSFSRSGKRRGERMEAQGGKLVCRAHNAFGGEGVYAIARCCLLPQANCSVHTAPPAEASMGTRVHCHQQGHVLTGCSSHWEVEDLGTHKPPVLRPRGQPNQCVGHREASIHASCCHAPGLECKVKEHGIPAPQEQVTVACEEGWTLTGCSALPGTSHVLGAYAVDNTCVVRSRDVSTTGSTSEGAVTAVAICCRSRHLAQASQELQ
- Sequence (P01130 22-860 partner limits assumed): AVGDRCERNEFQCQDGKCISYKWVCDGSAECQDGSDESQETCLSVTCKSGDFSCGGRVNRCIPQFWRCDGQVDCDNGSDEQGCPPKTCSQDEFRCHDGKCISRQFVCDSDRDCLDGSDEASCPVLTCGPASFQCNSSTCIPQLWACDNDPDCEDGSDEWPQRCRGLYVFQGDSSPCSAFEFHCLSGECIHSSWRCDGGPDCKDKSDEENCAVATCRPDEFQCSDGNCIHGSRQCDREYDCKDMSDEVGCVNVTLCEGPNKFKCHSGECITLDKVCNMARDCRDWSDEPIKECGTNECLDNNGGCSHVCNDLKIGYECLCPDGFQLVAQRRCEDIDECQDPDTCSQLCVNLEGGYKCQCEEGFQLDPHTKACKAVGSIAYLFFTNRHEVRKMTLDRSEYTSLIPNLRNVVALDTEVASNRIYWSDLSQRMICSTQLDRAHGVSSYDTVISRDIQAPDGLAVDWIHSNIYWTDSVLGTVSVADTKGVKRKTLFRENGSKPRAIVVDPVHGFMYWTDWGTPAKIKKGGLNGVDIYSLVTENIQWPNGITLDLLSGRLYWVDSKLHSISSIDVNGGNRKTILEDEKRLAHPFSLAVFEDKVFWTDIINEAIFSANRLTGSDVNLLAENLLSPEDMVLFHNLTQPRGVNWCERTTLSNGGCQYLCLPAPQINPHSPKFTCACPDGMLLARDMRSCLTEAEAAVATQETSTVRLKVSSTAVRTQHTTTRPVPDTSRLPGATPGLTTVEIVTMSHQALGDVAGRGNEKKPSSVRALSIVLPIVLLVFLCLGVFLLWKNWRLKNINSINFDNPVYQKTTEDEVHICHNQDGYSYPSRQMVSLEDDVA
- measurement-description: Inhibition of PCSK9-LDLR (unknown origin) protein-protein interaction
Peptide text beside a SMILES is read from it.
observable: IC50
Remember to put the unit after the number in your answer.

CCNC(=O)[C@@H]1CSCC(=O)N[C@@H](Cc2ccccc2)C(=O)N[C@@H](C(C)C)C(=O)N2CCC[C@H]2C(=O)N[C@@H]([C@@H](C)O)C(=O)N[C@@H]([C@@H](C)O)C(=O)N[C@@H](Cc2ccc(-c3ccccc3)cc2)C(=O)N(C)[C@@H](C)C(=O)N[C@@H](Cc2ccc(-c3ccccc3)cc2)C(=O)N(C)[C@@H](C)C(=O)N[C@@H](CCC(=O)O)C(=O)N[C@@H](C)C(=O)N2CCC[C@H]2C(=O)N1 ... 0.002 µM
CC[C@H](C)[C@H](NC(=O)[C@@H](N)CC(C)C)C(=O)N[C@@H](CC(C)C)C(=O)N1CCC[C@H]1C(=O)N[C@@H](CCCCN)C(=O)N[C@@H](Cc1c[nH]cn1)C(=O)N[C@@H](CO)C(=O)N[C@@H](C)C(=O)N[C@@H](CC(=O)O)C(=O)O (H-LILPKHSAD-OH) ... 1.6 µM
CC(=O)N[C@H](C(=O)N[C@H](C(=O)N[C@@H](Cc1ccccc1)C(=O)N[C@H](C(=O)N[C@@H](CO)C(=O)N[C@@H](Cc1c[nH]c2ccccc12)C(=O)N[C@@H](CCC(=O)O)C(=O)N[C@@H](CCC(=O)O)C(=O)N[C@@H](C)C(=O)N[C@@H](CC(C)C)C(=O)N[C@@H](CC(=O)O)C(=O)N[C@@H](Cc1c[nH]c2ccccc12)C(=O)N[C@H](C(N)=O)C(C)C)[C@@H](C)O)C(C)C)[C@@H](C)O (Ac-TVFTSWEEALDWV-NH2) ... 27.1 µM

# input for lookup
Need IC50 of CC(=O)N[C@H](C(=O)N[C@H](C(=O)N[C@@H](Cc1ccccc1)C(=O)N[C@@H](CCCNC(=N)N)C(=O)N[C@@H](CO)C(=O)N[C@@H](Cc1c[nH]c2ccccc12)C(=O)N[C@@H](CCC(=O)O)C(=O)N[C@@H](CCC(=O)O)C(=O)N[C@@H](Cc1ccc(O)cc1)C(=O)N[C@@H](CC(C)C)C(=O)N[C@@H](CC(=O)O)C(=O)N[C@@H](Cc1ccc(O)cc1)C(=O)N[C@H](C(N)=O)C(C)C)C(C)C)[C@@H](C)O (Ac-TVFRSWEEYLDYV-NH2) , thanks. 14.5 µM

The measurements presented in this section are drawn from ChEMBL document CHEMBL5233285.
